Target: T1, human IFN-ω (human, UniProt P05000 24-195)
T1 construct: also called interferon omega
Test: ProteOn, one antigen concentration
readout.kind: Kd (nM)
Value expressed in nM; do not type the unit.

See these solved cases before continuing.
**Query** Quick one: Kd of IFWM3307 (antibody, V domains shown, VH IFWH591, VL IFWL1001; converted mAb; also called IFWB3042) VH: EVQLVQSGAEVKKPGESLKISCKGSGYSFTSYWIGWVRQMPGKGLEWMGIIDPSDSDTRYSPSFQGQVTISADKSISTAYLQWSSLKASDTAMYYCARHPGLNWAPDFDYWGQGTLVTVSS VL: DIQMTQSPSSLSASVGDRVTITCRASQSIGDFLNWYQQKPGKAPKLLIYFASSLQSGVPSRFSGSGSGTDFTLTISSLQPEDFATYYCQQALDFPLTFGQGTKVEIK ?
**Result** 0.046

**Query** # get_value(readout='Kd', item= IFWM3338 (antibody, V domains shown, VH IFWH591, VL IFWL1091; converted mAb; also called IFWB3073) VH: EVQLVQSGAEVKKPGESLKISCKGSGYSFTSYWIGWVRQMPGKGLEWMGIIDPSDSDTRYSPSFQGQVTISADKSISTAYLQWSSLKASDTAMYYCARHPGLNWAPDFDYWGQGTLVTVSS VL: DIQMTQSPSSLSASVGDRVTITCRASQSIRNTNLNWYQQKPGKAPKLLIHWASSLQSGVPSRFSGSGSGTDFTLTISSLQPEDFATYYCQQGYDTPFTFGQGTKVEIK )
**Result** 0.057

**Query** Form field: reported Kd of IFWM3364 (antibody, V domains shown, VH IFWH624, VL IFWL1060; converted mAb; also called IFWB3099) VH: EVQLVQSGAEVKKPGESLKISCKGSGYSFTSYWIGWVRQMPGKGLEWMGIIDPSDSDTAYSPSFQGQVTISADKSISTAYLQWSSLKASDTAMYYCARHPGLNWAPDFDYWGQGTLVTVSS VL: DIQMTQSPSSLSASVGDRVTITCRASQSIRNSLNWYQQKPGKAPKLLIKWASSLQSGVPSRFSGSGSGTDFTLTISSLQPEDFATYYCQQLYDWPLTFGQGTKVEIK
**Result** 0.013

**Query** Entry under review: IFWM3347 (antibody, V domains shown, VH IFWH624, VL IFWL1004; converted mAb; also called IFWB3082) VH: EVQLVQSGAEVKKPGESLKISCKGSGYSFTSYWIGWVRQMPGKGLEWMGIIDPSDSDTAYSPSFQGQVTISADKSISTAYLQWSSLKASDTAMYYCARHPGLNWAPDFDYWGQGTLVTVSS VL: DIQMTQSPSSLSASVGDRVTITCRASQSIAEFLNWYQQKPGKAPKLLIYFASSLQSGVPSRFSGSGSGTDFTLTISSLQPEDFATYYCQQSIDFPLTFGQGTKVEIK . Reported Kd?
**Result** 0.048

Please turn your attention to the following entry.
**Query** // query Kd value for entry IFWM3301 (antibody, V domains shown, VH IFWH591, VL IFWL983; converted mAb; also called IFWB3036) VH: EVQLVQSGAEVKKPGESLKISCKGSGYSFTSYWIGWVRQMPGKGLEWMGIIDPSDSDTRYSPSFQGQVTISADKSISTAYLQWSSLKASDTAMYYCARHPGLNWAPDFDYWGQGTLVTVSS VL: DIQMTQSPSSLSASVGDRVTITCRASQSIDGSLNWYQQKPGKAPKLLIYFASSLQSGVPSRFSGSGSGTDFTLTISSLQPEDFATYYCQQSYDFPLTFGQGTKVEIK
**Result** 0.018

The measurements presented in this section are drawn from patent US20150368338A1.
